Tested on: Tobacco mosaic virus
Assay: Antiviral activity against Tobacco mosaic virus (TMV) inoculated on whole Nicotiana tabacum leaves followed by smearing with 100 ug/mL compound solution on left side of leaves assessed as viral infection curative effect measured 3 to 4 days post viral infection
Format: functional
Parameter measured: Activity (%)
All answers are understood in %, so give the number only.

Before answering, review these 2 worked examples.
COc1cc2c3c(c4cc(OC)c(OC)cc4c2cc1OC)CN1CCCC1C3.O=C(O)c1ccc(O)cc1 (stereo not drawn) [TYLOPHORINE P-HYDROXYBENZOIC ACID SALT]: 42.9
CC1(C)C2CC[C@]1(S(=O)(=O)O)C(=O)C2.COc1cc2c3c(c4cc(OC)c(OC)cc4c2cc1OC)CN1CCCC1C3 (stereo not drawn): 65.5

Would you kindly look at the next entry?
Which Activity is listed for COc1ccc2c3c(c4cc(OC)c(OC)cc4c2c1)CN1CCCC1C3 (racemic) [(+/-)-DEOXYTYLOPHORININE] ?
26.1
